Hi there, I'd appreciate the recorded fold change (FC) for every entry that follows.
Molecular target: Soluble guanylate cyclase alpha1/beta1 complex (Homo sapiens) (UniProt Q02153+Q02108)
Assay: Activation of full length human sGC alpha1/beta1 subunit containing heme in ferric state expressed in Sf9 insect cells using […] incubated for 15 mins at 100 uM incubated for 10 mins by [32P]GTP assay relative to control
Conditions: filed as activator
Respond with the number and no other words.

Query: Record request: fold change (FC) value, item Cc1ccc(C)c(OCCCC(C)(C)C(=O)O)c1
Reply: 4

Query: Param item: Cc1ccc(C)c(N(CCCC(C)(C)C(=O)O)C(=O)CCCCC(=O)N(CCCC(C)(C)C(=O)O)c2cc(C)ccc2C)c1
Reply: 2.2

Query: Param item: Cc1ccc(C)c(OCCCCC(=O)O)c1
Reply: 2.9

Query: Param item: Cc1ccc(C)c(OCCCCCC(=O)O)c1
Reply: 2.1

Query: Param item: Cc1ccc(C(C)C)c(OCCCC(C)(C)C(=O)O)c1
Reply: 2.6

Query: Param item: CCCCCCC(CCCOc1cc(C)ccc1C)C(=O)O (configuration not stated)
Reply: 4.1

Query: Param item: Cc1ccc(C)c(NCCCC(C)(C)C(=O)O)c1
Reply: 2.9
